Listed here are compounds together with their documented pIC50.
- study-system: DMT1 (Homo sapiens, UniProt P49281)
- Sequence (P49281 whole entry): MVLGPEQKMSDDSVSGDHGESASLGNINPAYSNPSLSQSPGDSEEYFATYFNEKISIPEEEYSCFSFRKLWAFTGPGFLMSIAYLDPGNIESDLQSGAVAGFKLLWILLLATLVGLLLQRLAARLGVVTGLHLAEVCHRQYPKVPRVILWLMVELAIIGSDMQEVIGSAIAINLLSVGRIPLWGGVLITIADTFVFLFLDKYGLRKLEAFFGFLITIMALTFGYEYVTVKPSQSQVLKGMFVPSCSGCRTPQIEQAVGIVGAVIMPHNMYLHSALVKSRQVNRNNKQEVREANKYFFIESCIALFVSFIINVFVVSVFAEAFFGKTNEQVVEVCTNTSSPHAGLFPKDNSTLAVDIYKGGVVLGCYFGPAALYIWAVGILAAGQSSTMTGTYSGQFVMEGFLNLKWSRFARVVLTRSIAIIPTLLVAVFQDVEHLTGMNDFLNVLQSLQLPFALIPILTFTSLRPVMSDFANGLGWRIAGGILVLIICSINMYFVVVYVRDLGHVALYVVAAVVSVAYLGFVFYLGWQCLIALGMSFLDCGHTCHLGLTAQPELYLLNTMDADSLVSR
- experiment-summary: DMT1 activity assay (in vitro)
- assay-conditions: inhibition of DMT1; read-out: IC50 Activity Level
pIC50: −log10 of the molar value.

Examples from the recorded data:
| compound | measured-quantity | result |
| --- | --- | --- |
| O=[N+]([O-])c1ccc(-n2nc3c(c2O)-c2ccccc2CC3)nc1 | pIC50 | 6.00 to 7.00 |
| Oc1c2c(nn1-c1cc(C(F)(F)F)ccn1)CCc1ccccc1-2 | pIC50 | 6.00 to 7.00 |
| Cc1ccc(-n2nc3c(c2O)-c2ccccc2CC3)nc1 | pIC50 | 6.00 to 7.00 |
| CC(C)(C)c1csc(-n2nc3c(c2O)-c2ccccc2CC3)n1.Cl [Example 5, hydrochloride] | pIC50 | ≤ 6.00 |
| Oc1c2c(nn1-c1ccc(C(F)(F)F)cn1)CCc1ccccc1-2 | pIC50 | ≤ 6.00 |
| N#Cc1ccc(-c2ccc3c(c2)CCc2nn(-c4ccccn4)c(O)c2-3)cc1 | pIC50 | ≤ 6.00 |
| Oc1c2c(nn1-c1ncccc1C(F)(F)F)CCc1ccccc1-2 | pIC50 | ≤ 6.00 |
| Oc1c2c(nn1-c1ccccn1)CCc1cc(-c3ccc4c(c3)OCO4)ccc1-2 | pIC50 | 6.00 to 7.00 |

So what's the measured pIC50 for this one? Oc1c2c(nn1-c1ccccn1)CCCc1ccccc1-2 6.00 to 7.00

Hello, the source for this data is patent US20080234327A1, in case you need it.
